Measured IC50, listed per entry.
- System: tested cancer cell lines (SW480, SW620, PC3, MDA-MB-231)
- assay.remarks: MTT assay, mean over tested cancer cell lines
- Type: cell-based
- test.context: Homo sapiens; Table S7; mean of the four cancer cell lines, >100 entered as 100; read-out: mean anticancer IC50

Query block: Provide one value: measured IC50 of "CC(C)[C@@H]1CC[C@@H](C)C[C@H]1OC(=O)c1cc2ccc(O)cc2oc1=O"
Result block: 43.7 µM

Query block: Provide one value: measured IC50 of CCOP(=O)(OCC)C1C(=O)Oc2ccccc2C1P(=O)(c1ccccc1)c1ccccc1 (stereo not shown)
Result block: > 100 µM

Query block: Provide one value: measured IC50 of "COc1cccc2cc(P(=O)(c3ccccc3)c3ccccc3)c(=O)oc12"
Result block: > 100 µM

Query block: Provide one value: measured IC50 of CCOC(=O)C1C(=O)Oc2ccccc2C1P(=O)(c1ccccc1)c1ccccc1 (stereo not shown)
Result block: > 100 µM

====

- Tested on: SW620
- assay.remarks: MTT cytotoxicity assay
- Assay type: cell-based, human
- test.context: SW-620; MTT, 72 h, human metastatic colon cancer
Measured IC50, listed per entry.
Write the number in µM without appending the unit.

Worked cases, answers included:
Query block: Provide one value: measured IC50 of COc1cccc2c1C(=O)c1c(O)c3c(c(O)c1C2=O)C[C@@](O)(C(=O)CO)C[C@@H]3O[C@H]1C[C@H](N)[C@H](O)[C@H](C)O1 [Doxorubicin, reference compound]
Result block: 0.3

Query block: Provide one value: measured IC50 of "CC(C)[C@@H]1CC[C@@H](C)C[C@H]1OC(=O)c1cc2ccc(O)cc2oc1=O"
Result block: 38.7

Now, please, on to the next molecule.
Query block: Provide one value: measured IC50 of COc1cccc2c1OC(=O)C(C(=O)O[C@@H]1C[C@H](C)CC[C@H]1C(C)C)C2P(=O)(c1ccccc1)c1ccccc1 (mixture of isomers)
Result block: 19.8

====

Measured pIC50, listed per entry.
- Tested on: tested cancer cell lines (SW480, SW620, PC3, MDA-MB-231)
- assay.remarks: MTT assay, mean over tested cancer cell lines
- Assay type: cell-based
- test.context: Homo sapiens; mean of the four cancer cell lines; read-out: average IC50 against tested cancer cell lines
# pIC50: negative log10 of molar concentration; output just the value

Worked cases, answers included:
Query block: Provide one value: measured pIC50 of "CC(C)[C@@H]1CC[C@@H](C)C[C@H]1OC(=O)c1cc2ccc(O)cc2oc1=O"
Result block: 4.36

Query block: Provide one value: measured pIC50 of CC(C)[C@@H]1CC[C@@H](C)C[C@H]1OC(=O)C1C(=O)Oc2ccccc2C1P(=O)(c1ccccc1)c1ccccc1 (mixture of isomers)
Result block: 4.93

Query block: Provide one value: measured pIC50 of COc1cccc2c1OC(=O)C(C(=O)O[C@@H]1C[C@H](C)CC[C@H]1C(C)C)C2P(=O)(c1ccccc1)c1ccccc1 (mixture of isomers)
Result block: 4.54

Now, please, on to the next molecule.
Query block: Provide one value: measured pIC50 of "CC(C)[C@@H]1CC[C@@H](C)C[C@H]1OC(=O)c1cc2ccccc2oc1=O"
Result block: 4.18

====

- System: PC3
- assay.remarks: MTT cytotoxicity assay
- Format: cell-based, human
- test.context: PC-3; MTT, 72 h, human metastatic prostate cancer
measure.name: IC50

Query block: Provide one value: measured IC50 of "CC(C)[C@H]1CC[C@H](C)C[C@@H]1OC(=O)c1cc2ccccc2oc1=O"
Result block: > 100 µM

Query block: Provide one value: measured IC50 of CCOC(=O)C1C(=O)Oc2ccccc2C1P(=O)(OCC)OCC (stereo not shown)
Result block: > 100 µM

Query block: Provide one value: measured IC50 of "O=C(OC1CCCCC1)c1cc2ccccc2oc1=O"
Result block: > 100 µM

Query block: Provide one value: measured IC50 of CCOP(=O)(OCC)C1C(=O)Oc2ccccc2C1P(=O)(c1ccccc1)c1ccccc1 (stereo not shown)
Result block: > 100 µM

Continuing:
Query block: Provide one value: measured IC50 of CC(C)[C@@H]1CC[C@@H](C)C[C@H]1OC(=O)C1C(=O)Oc2ccccc2C1P(=O)(c1ccccc1)c1ccccc1 (mixture of isomers)
Result block: 9.8 µM

Query block: Provide one value: measured IC50 of "CCOP(=O)(OCC)c1cc2cccc(OC)c2oc1=O"
Result block: > 100 µM

Query block: Provide one value: measured IC50 of COc1cccc2c1C(=O)c1c(O)c3c(c(O)c1C2=O)C[C@@](O)(C(=O)CO)C[C@@H]3O[C@H]1C[C@H](N)[C@H](O)[C@H](C)O1 [Doxorubicin, reference compound]
Result block: 0.3 µM

====

- assay.remarks: Trypan blue assay
- Type: cell-based, human
- test.context: human, HaCaT cells, compound at IC50, 72 h, mean
measure.name: viability at 72 h (%)
Write the number in % without appending the unit.

Worked cases, answers included:
Query block: Provide one value: measured viability at 72 h of CC(C)[C@@H]1CC[C@@H](C)C[C@H]1OC(=O)C1C(=O)Oc2ccccc2C1P(=O)(c1ccccc1)c1ccccc1 (mixture of isomers) [Compound 4a]
Result block: 96

Query block: Provide one value: measured viability at 72 h of CCOP(=O)(OCC)c1cc2cccc(OC)c2oc1=O [Compound 2b]
Result block: 94.7

Now, please, on to the next compound.
Query block: Provide one value: measured viability at 72 h of COc1cccc2c1OC(=O)C(C(=O)O[C@@H]1C[C@H](C)CC[C@H]1C(C)C)C2P(=O)(c1ccccc1)c1ccccc1 (mixture of isomers) [Compound 4b]
Result block: 98.3

====

- System: SW620
- assay.remarks: MTT cytotoxicity assay
- Assay type: cell-based, human
- test.context: SW-620; MTT, 72 h, human metastatic colon cancer
measure.name: IC50

Worked cases, answers included:
Query block: Provide one value: measured IC50 of "COc1cccc2cc(P(=O)(c3ccccc3)c3ccccc3)c(=O)oc12"
Result block: > 100 µM

Query block: Provide one value: measured IC50 of "COc1ccc2cc(C(=O)O[C@@H]3C[C@H](C)CC[C@H]3C(C)C)c(=O)oc2c1"
Result block: > 100 µM

Query block: Provide one value: measured IC50 of CC(C)[C@@H]1CC[C@@H](C)C[C@H]1OC(=O)C1C(=O)Oc2ccccc2C1P(=O)(c1ccccc1)c1ccccc1 (mixture of isomers)
Result block: 6.8 µM

Query block: Provide one value: measured IC50 of CCOP(=O)(OCC)C1C(=O)Oc2ccccc2C1P(=O)(c1ccccc1)c1ccccc1 (centres unmarked)
Result block: > 100 µM

Now, please, on to the next compound.
Query block: Provide one value: measured IC50 of "COc1cccc2cc(C(=O)O[C@@H]3C[C@H](C)CC[C@H]3C(C)C)c(=O)oc12"
Result block: > 100 µM

====

- Tested on: PC3
- assay.remarks: MTT cytotoxicity assay
- Assay type: cell-based, human
- test.context: MTT, 72 h, human metastatic prostate cancer
measure.name: IC50

Query block: Provide one value: measured IC50 of CCOP(=O)(OCC)c1cc2ccccc2oc1=O [Compound 2a]
Result block: > 100 µM

====

- Tested on: HaCaT
- assay.remarks: MTT cytotoxicity assay, normal cells
- Format: cell-based
- test.context: HaCaT, 72 h, human immortal keratinocytes (normal cells)
measure.name: IC50 (µM)
Write the number in µM without appending the unit.

Query block: Provide one value: measured IC50 of CC(C)[C@@H]1CC[C@@H](C)C[C@H]1OC(=O)C1C(=O)Oc2ccccc2C1P(=O)(c1ccccc1)c1ccccc1 (mixture of isomers) [Compound 4a]
Result block: 15.1

Query block: Provide one value: measured IC50 of CC(C)[C@@H]1CC[C@@H](C)C[C@H]1OC(=O)c1cc2ccc(O)cc2oc1=O [Compound 1e]
Result block: 78.8

Now, please, on to the next compound.
Query block: Provide one value: measured IC50 of COc1cccc2c1OC(=O)C(C(=O)O[C@@H]1C[C@H](C)CC[C@H]1C(C)C)C2P(=O)(c1ccccc1)c1ccccc1 (mixture of isomers) [Compound 4b]
Result block: 27.6

====

- System: HaCaT
- assay.remarks: MTT cytotoxicity assay, normal cells
- Type: cell-based
- test.context: HaCaT, 72 h, human immortal keratinocytes (normal cells)
Measured IC50, listed per entry.
Write the number in µM without appending the unit.

Worked cases, answers included:
Query block: Provide one value: measured IC50 of COc1cccc2c1C(=O)c1c(O)c3c(c(O)c1C2=O)C[C@@](O)(C(=O)CO)C[C@@H]3O[C@H]1C[C@H](N)[C@H](O)[C@H](C)O1 [Doxorubicin, reference compound]
Result block: 0.3

Query block: Provide one value: measured IC50 of COc1ccc2cc(C(=O)O[C@@H]3C[C@H](C)CC[C@H]3C(C)C)c(=O)oc2c1 [Compound 1c]
Result block: 15.3

Query block: Provide one value: measured IC50 of CC(C)[C@H]1CC[C@H](C)C[C@@H]1OC(=O)c1cc2ccccc2oc1=O [Compound 1b]
Result block: 41.1

Now, please, on to the next compound.
Query block: Provide one value: measured IC50 of CC(C)[C@@H]1CC[C@@H](C)C[C@H]1OC(=O)c1cc2ccccc2oc1=O [Compound 1a]
Result block: 82.7
